Entry source: PubChem BioAssay

Experiment: inhibition of 3D7 malaria parasite growth – strain 3D7 (AID 2306);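 also: 0% = DMSO wells and 100% = chloroquine plus artemisinin control wells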
Conditions: P. falciparum 3D7 erythrocytic growth, LDH absorbance, 72 h; at 2 µM; stronger effect = higher value
PARAMETER: growth inhibition (%)
Number in %, nothing else.

The cases that follow already have their growth inhibition on record.
smiles_representation=O=C(NCCCCN1CCC(c2ccc(OC(F)(F)F)cc2)CC1)c1ccc(NC(=O)c2ccc(Cl)cc2)cc1 parameter="growth inhibition" endpoint_result=99
smiles_representation=Cc1[nH]c(C)c(-c2ccc(Oc3ccc(OC(F)(F)F)cc3)cc2)c(=O)c1Br parameter="growth inhibition" endpoint_result=96
smiles_representation=C[C@@H]1CN(c2nc(NCCc3ccc(O)cc3)nc(NCc3ccccc3-c3ccc(C(F)(F)F)cc3)n2)C[C@H](C)N1 parameter="growth inhibition" endpoint_result=100

Could you share which growth inhibition value was measured for Cc1cc(O)c(-c2cc(C(=O)Nc3cccnc3)[nH]n2)cc1C ? 97

For the compound shown here, CC(C)(CNC(=O)[C@@H]1CCCN(Cc2ccc(Cl)cc2)C1)c1nc(-c2ccc(Cl)c(O)c2)c(-c2ccncc2)[nH]1 , give the reported growth inhibition. 97

* * *

Experiment: HCT116 colon cancer cell growth inhibition, primary screen, CellTiter-Glo luminescence, NPC library (AID 1117342)
Settings: at 20 µM (top of the series)
The source made the active and inactive calls.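 How the source made its calls: active means compounds that lower survival of HCT116 colon cancer cells in the luminescence readout, no numeric limit stated; inactive means the rest.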
Use one of these outcomes when replying: true (1) = active, false (0) = inactive

Completed entries (count: 3):
molecule="CN(C)CCCO[C@@H]1[C@H]2OC(C)(C)O[C@H]2O[C@@H]1C(O)CO (stereo partly drawn)" class_label="true (1)"
molecule=O=C1NCCN1CCN1CCC(c2cn(-c3ccc(F)cc3)c3ccc(Cl)cc23)CC1 class_label="true (1)"
molecule=COc1ccccc1N1CCN(CCCCNC(=O)c2ccc(-c3ccc(C(C)=O)cc3)cc2)CC1 class_label="true (1)"

What did this assay record as the result for CCN1CCC[C@H]1CNC(=O)c1c(OC)ccc(Br)c1OC ? false (0)

Record lookup: outcome of this test for CN1CCCC(CC2c3ccccc3Sc3ccccc32)C1 (stereo not drawn) ? true (1)

Test call for this molecule, please: CNCCc1ccccn1 false (0)

Record lookup: outcome of this test for CC1(CN2CCC(n3c(=O)[nH]c4ccccc43)CC2)OCc2ccccc2-n2cccc21 (stereo not drawn) ? true (1)

Check the results log: what was the call for COc1ccc(C=CC(=O)Nc2ccccc2C(=O)O)cc1OC ? false (0)

Please let me know the test result on file for C=CCNC(N)=S . false (0)

* * *

Assay: liver-stage malaria parasite growth inhibition, primary screen, cell-based, HepG2, luciferase luminescence, HepG2 viability (AID 624349);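 also: 100% = mean of DMSO negative control wells on the same plate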
Conditions: P. berghei liver stage in HepG2, luciferase luminescence, concentration not given here; stronger effect = lower value
Measured parasite load remaining accompanies every entry in the list below.
# unit: % | format: bare number

Example cases with answers are listed next.
compound="COCC(=O)Nc1c(I)c(C(=O)NCC(O)CO)c(I)c(C(=O)N(C)CC(O)CO)c1I (stereo unspecified)" value_units=% endpoint_result=103
compound=NCCCCC(=O)O value_units=% endpoint_result=89.3
compound=O=C1[O][Bi][O]c2ccccc21 value_units=% endpoint_result=39.8

# get_value(readout='parasite load remaining', item= CON=C(C(=O)NC1C(=O)N2C(C(=O)O)=C(COC(C)=O)CSC12)c1csc(N)n1 (stereo unspecified) ) 73.2

Report parasite load remaining for O=C(Oc1ccccc1C(=O)O)c1ccccc1O please. 63.4

Give its parasite load remaining value. Item: NC(N)=NCCCCN=C(N)N 111

Endpoint output: parasite load remaining of CC1=C(/C=C/C(C)=C/C=C/C(C)=C/C=C/C=C(C)/C=C/C=C(C)/C=C/C2=C(C)CCCC2(C)C)C(C)(C)CCC1 . Value? 58
